- ASSAY PROCEDURE: Tissue distribution of SHR9146 in mice after oral gavage of 40 mg/kg
- Format: in vivo, ICR mice
- APPLIED CONDITIONS: male, ICR, mouse, kidney, po, 40 mg/kg, male, 24 h, 40 mg/kg oral gavage, individual mice; read-out: SHR9146 concentration in Kidney
- Procedure: ICR mice with body weight 16–26 g were supplied by Shanghai Lingchang Biotechnology Co., Ltd. (animal breeding license number SCXK (Shanghai) 2013-0018) and housed at Shanghai Institute of Materia Medica, Chinese Academy of Sciences [animal use license number SYXK (Shanghai) 2015-0027]. The mice used in this study were fasted overnight for 12 h but had free access to water. Food was supplied 4 h post-dose. […]
MEASURED ENDPOINT: concentration at 24 h (ng/g)
API: value field is a number in ng/g; no unit string.

Note concentration at 24 h for the molecule shown: OCCn1cc(-c2ccc(N3CCC([C@H]4c5c(F)cccc5-c5cncn54)CC3)cc2)cn1
55
